Provenance of the data: patent US11076595B2

- Test system: Echinochloa crus-galli
- assay_protocol: Test Example 12: herbicidal effect test by treatment during growing period in paddy field
- Type: in vivo
- details: 120 g/10a; treatment seven days after sowing in flooded paddy pot; assessed 14 days after treatment
readout_type: Weed suppression rate (%) Echinochloa crus-galli
Entry rule: numbers only, all in %.

Item: CC(C)N(C(=O)n1cnn(S(=O)(=O)c2cccc(F)c2)c1=O)c1c(F)cc(F)cc1F [Compound 11-442] | Weed suppression rate (%) Echinochloa crus-galli: 100

Item: CC(C)N(C(=O)n1cnn(S(C)(=O)=O)c1=O)c1ccc(Cl)cn1 [Compound 11-38] | Weed suppression rate (%) Echinochloa crus-galli: 100

Item: Cc1ccc(N(C(=O)n2cnn(S(=O)(=O)C3CC3)c2=O)C(C)C)c(F)c1 [Compound 11-212] | Weed suppression rate (%) Echinochloa crus-galli: 90

Item: Cc1ccc(N(C(=O)n2cnn(S(=O)(=O)c3cccs3)c2=O)C(C)C)c(F)c1 [Compound 11-1036] | Weed suppression rate (%) Echinochloa crus-galli: 90

Item: CC(C)CN(C)S(=O)(=O)n1ncn(C(=O)N(c2ccc(F)cc2F)C(C)C)c1=O [Compound 11-1101] | Weed suppression rate (%) Echinochloa crus-galli: 90

Item: Cc1ccc(N(C(=O)n2cnn(S(=O)(=O)C(C)C)c2=O)C(C)C)c(F)c1 [Compound 11-73] | Weed suppression rate (%) Echinochloa crus-galli: 90

Item: CC(C)N(C(=O)n1cnn(S(=O)(=O)c2c(F)cccc2F)c1=O)c1ccccc1 [Compound 11-762] | Weed suppression rate (%) Echinochloa crus-galli: 80

Item: CC(C)N(C(=O)n1cnn(S(=O)(=O)C2CC2)c1=O)c1ccc(Cl)cc1F [Compound 11-206] | Weed suppression rate (%) Echinochloa crus-galli: 100

---

- Test system: Monochoria vaginalis
- assay_protocol: Test Example 12: herbicidal effect test by treatment during growing period in paddy field
- Assay type: in vivo
- details: 120 g/10a; treatment seven days after sowing in flooded paddy pot; assessed 14 days after treatment
Please provide measured Weed suppression rate (%) Monochoria vaginalis for the entries that follow.
Entry rule: numbers only, all in %.

Item: `CC(C)N(C(=O)n1cnn(S(=O)(=O)C2CC2)c1=O)c1c(F)cc(F)cc1F` | Weed suppression rate (%) Monochoria vaginalis: 90

Item: `CC(C)N(C(=O)n1cnn(S(=O)(=O)c2ccccc2F)c1=O)c1ccc(F)c(F)c1F` | Weed suppression rate (%) Monochoria vaginalis: 100

Item: `Cc1cc(C)c(S(=O)(=O)n2ncn(C(=O)N(c3ccc(F)cc3)C(C)C)c2=O)c(C)c1` | Weed suppression rate (%) Monochoria vaginalis: 80

Item: `Cc1ccc(N(C(=O)n2cnn(S(=O)(=O)c3ccccc3F)c2=O)C(C)C)c(F)c1` | Weed suppression rate (%) Monochoria vaginalis: 80

Item: `Cc1cc(C)c(S(=O)(=O)n2ncn(C(=O)N(c3ccccc3)C(C)C)c2=O)c(C)c1` | Weed suppression rate (%) Monochoria vaginalis: 90

Item: `CC(C)N(C(=O)n1cnn(S(=O)(=O)c2cccs2)c1=O)c1ccc(F)cc1F` | Weed suppression rate (%) Monochoria vaginalis: 90

Item: `CC(C)N(C(=O)n1cnn(S(=O)(=O)c2c(F)c(F)c(F)c(F)c2F)c1=O)c1ccccc1` | Weed suppression rate (%) Monochoria vaginalis: 90

---

Please provide measured Weed suppression rate (%) Echinochloa crus-galli for the entries that follow.
- System: Echinochloa crus-galli
- assay_protocol: Test Example 12: herbicidal effect test by treatment during growing period in paddy field
- Assay type: in vivo
- details: 120 g/10a; treatment seven days after sowing in flooded paddy pot; assessed 14 days after treatment
- Experimental: This test was performed with two replications per one formulation concentration plot, and 14 days after the formulation treatments, the weed suppression rate (%) was determined according to the following equation (Math. 2). Weed suppression rate (%)=(1−average dry weight (g) of plants in treated plots/average dry weight (g) of plants in untreated plots)×100 [Math. 2] […]
Entry rule: numbers only, all in %.

Item: CC(C)N(C(=O)n1cnn(S(=O)(=O)c2ccc(C(C)(C)C)cc2)c1=O)c1ccc(F)c(F)c1F [Compound 11-685] | Weed suppression rate (%) Echinochloa crus-galli: 80

Item: CC(C)N(C(=O)n1cnn(S(=O)(=O)C(C)C)c1=O)c1c(F)c(F)cc(F)c1F [Compound 11-64] | Weed suppression rate (%) Echinochloa crus-galli: 100

Item: CC(C)N(C(=O)n1cnn(S(=O)(=O)CCl)c1=O)c1ccc(F)cc1F [Compound 11-109] | Weed suppression rate (%) Echinochloa crus-galli: 100

Item: Cc1nn(S(=O)(=O)C2CC2)c(=O)n1C(=O)N(c1ccc(F)cc1F)C(C)C [Compound 11-246] | Weed suppression rate (%) Echinochloa crus-galli: 90

Item: CC(C)N(C(=O)n1cnn(S(=O)(=O)C(F)(F)F)c1=O)c1ccc(F)cc1F [Compound 11-95] | Weed suppression rate (%) Echinochloa crus-galli: 90

Item: CCN(C(=O)n1cnn(S(=O)(=O)c2ccccc2)c1=O)C1CCCCC1 [Compound 11-353] | Weed suppression rate (%) Echinochloa crus-galli: 90

Item: CC(C)N(C(=O)n1cnn(S(=O)(=O)c2ccc(C(C)(C)C)cc2)c1=O)c1ccc(F)cc1Cl [Compound 11-689] | Weed suppression rate (%) Echinochloa crus-galli: 60

Item: CC(C)N(C(=O)n1cnn(S(=O)(=O)C2CCCCC2)c1=O)c1ccc(C#N)cc1Cl [Compound 11-316] | Weed suppression rate (%) Echinochloa crus-galli: 90

Item: CC(C)N(C(=O)n1cnn(S(=O)(=O)c2ccc(F)cc2)c1=O)c1cccc(F)c1F [Compound 11-474] | Weed suppression rate (%) Echinochloa crus-galli: 100

Item: CC(C)N(C(=O)n1cnn(S(=O)(=O)c2ccccc2F)c1=O)c1ccc(C(F)(F)F)cc1F [Compound 11-419] | Weed suppression rate (%) Echinochloa crus-galli: 90

Item: CC(C)N(C(=O)n1cnn(S(=O)(=O)c2cccs2)c1=O)c1c(F)c(F)cc(F)c1F [Compound 11-1027] | Weed suppression rate (%) Echinochloa crus-galli: 100

Item: CC(C)N(C(=O)n1cnn(S(=O)(=O)c2cccc(Cl)c2)c1=O)c1c(F)cc(F)cc1F [Compound 11-554] | Weed suppression rate (%) Echinochloa crus-galli: 80

Item: Cc1cc(Cl)ccc1N(C(=O)n1cnn(S(=O)(=O)C2CC2)c1=O)C(C)C [Compound 11-213] | Weed suppression rate (%) Echinochloa crus-galli: 90

Item: Cc1ccc(S(=O)(=O)n2ncn(C(=O)N(c3ccc(F)cc3F)C(C)C)c2=O)cc1 [Compound 11-637] | Weed suppression rate (%) Echinochloa crus-galli: 100

Item: CC(C)N(C(=O)n1cnn(S(=O)(=O)c2ccc(Cl)cc2)c1=O)c1cccc(F)c1F [Compound 11-587] | Weed suppression rate (%) Echinochloa crus-galli: 90

Item: CC(C)N(C(=O)n1cnn(S(C)(=O)=O)c1=O)c1c(F)cc(F)cc1F [Compound 11-16] | Weed suppression rate (%) Echinochloa crus-galli: 100
